These measurements were taken from patent US20240002516A1.

What koff was measured for each of the following?
target: T1, extracellular domain (ECD) of human TrkA protein, N-terminal flag tag and C-terminal His tag (PHA) (human, UniProt P04629 33-423); assay: SPR (BIAcore T200), antibody on protein G chip, PHA 0.625-20 nM injected
T1 construct: Made in 293-F cells and purified by IMAC; also called TrkA ECD protein; TrkA (ECD); not shown: flag tag at the N-terminus (after the signal peptide); His tag at the C-terminus
T1 sequence (P04629 33-423): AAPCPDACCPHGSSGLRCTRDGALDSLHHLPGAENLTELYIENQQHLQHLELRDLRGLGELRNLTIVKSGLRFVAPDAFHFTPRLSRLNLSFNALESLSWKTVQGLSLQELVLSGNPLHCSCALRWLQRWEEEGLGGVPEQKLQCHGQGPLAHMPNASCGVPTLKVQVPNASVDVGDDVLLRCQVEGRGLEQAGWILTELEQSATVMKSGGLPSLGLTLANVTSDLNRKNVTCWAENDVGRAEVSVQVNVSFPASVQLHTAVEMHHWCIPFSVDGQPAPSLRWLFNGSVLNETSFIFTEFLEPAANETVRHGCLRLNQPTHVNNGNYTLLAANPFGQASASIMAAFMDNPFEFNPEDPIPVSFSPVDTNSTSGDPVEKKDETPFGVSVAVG
Give a bare numeral; the unit s⁻¹ is implied.

Form: binder = PHD48 (antibody, V domains shown, also called full-length PHD48 antibody) VH: QVQLVQSGAEVKKPGASVKVSCKASGYTFTTYWMHWVRQAPGQGLEWIGTIYPGNSDSSNAQKFQGRVTLTRDTSTSTAYMELSSLRSEDTAVYYCTRFYYEDWYFDVWGQGTTVTVSS VL: DIQMTQSPSSLSASVGDRVTITCRASSSVSYLYWFQQKPGKAPKPLIYRTSNLASGVPSRFSGSGSGTDYTLTISSLQPEDFATYYCQQYHSYPPTFGGGTKVEIK ; koff = 0.000413

Form: binder = PHD48-08 (antibody, IgG4, V domains shown) VH: QVQLVQSGAEVKKPGASVKVSCKASGYTFTTYWMHWVRQAPGQGLEWIGTIYPGNSDSSNAQKFQGRVTLTADTSTSTAYMELSSLRSEDTAVYYCTRFYYEDWYFDVWGQGTTVTVSS VL: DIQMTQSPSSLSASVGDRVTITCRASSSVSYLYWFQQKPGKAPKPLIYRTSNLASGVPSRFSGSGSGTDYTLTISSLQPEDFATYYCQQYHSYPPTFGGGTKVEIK ; koff = 0.00045

Form: binder = PHD48-01 (humanized muPHD48) (antibody, human IgG4, V domains shown) VH: QVQLVQSGAEVKKPGASVKVSCKASGYSFTTYWMHWVRQAPGQGLEWIGTIYPGNSDSSNNQKFKGRATLTADTSTSTAYMELSSLRSEDTAVYYCTRFYYEDWYFDVWGQGTMVTVSS VL: DIQMTQSPSSLSASVGDRVTITCSASSSVSYMYWFQQKPGKAPKPWIYRTSNLASGVPSRFSGSGSGTDYTLTISSLQPEDFATYYCQQYHSYPPTFGGGTKVEIK ; koff = 0.000524
